Molecular target: T1, human KLB and human FGFR1c co-expressed on HEK293/hKLB/hFGFR1c/SRE-luc cells (human, UniProt Q86Z14 1-1044; P11362 22-822)
T1 construct: two receptors co-expressed on one cell line; also called KLB/FGFR1c coreceptor; FGF21R
T1 sequence (Q86Z14 whole entry, chain 1 of 2): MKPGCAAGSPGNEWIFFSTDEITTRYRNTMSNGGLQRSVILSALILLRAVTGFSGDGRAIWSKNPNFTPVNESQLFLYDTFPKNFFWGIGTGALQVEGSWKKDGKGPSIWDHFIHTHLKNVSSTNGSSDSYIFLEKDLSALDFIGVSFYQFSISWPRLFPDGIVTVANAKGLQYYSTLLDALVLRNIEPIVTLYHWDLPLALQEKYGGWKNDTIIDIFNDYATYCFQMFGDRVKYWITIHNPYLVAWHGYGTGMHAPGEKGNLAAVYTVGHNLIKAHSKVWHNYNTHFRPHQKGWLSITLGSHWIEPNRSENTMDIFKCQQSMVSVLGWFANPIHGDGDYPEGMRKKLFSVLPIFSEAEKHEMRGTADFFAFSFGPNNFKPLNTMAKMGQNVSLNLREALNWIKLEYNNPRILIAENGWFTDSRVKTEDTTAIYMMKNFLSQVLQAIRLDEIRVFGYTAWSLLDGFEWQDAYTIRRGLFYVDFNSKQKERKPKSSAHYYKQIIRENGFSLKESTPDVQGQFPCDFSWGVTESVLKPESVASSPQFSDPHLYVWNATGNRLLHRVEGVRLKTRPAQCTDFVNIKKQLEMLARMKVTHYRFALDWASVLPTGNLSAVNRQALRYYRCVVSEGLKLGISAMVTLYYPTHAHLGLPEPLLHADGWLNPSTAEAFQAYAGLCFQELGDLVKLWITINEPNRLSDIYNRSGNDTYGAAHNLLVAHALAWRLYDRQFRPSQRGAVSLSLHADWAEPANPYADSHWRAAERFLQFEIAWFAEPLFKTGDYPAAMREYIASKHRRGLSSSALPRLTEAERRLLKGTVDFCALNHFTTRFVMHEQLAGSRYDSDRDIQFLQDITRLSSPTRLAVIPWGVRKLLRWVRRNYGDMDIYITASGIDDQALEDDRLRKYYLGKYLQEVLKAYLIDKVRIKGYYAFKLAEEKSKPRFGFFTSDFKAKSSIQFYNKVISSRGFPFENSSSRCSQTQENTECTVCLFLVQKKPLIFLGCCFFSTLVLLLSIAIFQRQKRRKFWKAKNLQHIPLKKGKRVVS
T1 sequence (P11362 other isoform, or with tags, fused parts or gaps limits assumed, chain 2 of 2): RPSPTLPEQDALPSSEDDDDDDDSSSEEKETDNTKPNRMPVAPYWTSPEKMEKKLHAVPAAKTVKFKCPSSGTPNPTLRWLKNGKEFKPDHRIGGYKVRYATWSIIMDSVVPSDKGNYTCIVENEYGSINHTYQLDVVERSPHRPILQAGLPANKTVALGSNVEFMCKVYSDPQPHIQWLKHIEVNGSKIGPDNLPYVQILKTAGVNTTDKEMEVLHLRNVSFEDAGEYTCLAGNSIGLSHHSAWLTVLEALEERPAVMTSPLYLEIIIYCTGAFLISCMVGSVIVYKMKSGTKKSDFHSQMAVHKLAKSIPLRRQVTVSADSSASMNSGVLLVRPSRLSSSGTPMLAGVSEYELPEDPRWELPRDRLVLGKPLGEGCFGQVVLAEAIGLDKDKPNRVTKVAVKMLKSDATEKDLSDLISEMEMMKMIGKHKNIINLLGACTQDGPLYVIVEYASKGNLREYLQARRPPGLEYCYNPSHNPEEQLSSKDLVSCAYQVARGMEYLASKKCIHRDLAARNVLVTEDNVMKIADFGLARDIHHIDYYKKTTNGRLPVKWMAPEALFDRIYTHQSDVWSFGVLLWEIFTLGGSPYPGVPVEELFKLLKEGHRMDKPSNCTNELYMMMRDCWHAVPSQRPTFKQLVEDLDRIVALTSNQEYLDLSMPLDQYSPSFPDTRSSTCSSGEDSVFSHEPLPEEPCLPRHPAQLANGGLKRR
Experiment: FACS on stable HEK293 cells
Experimental: To determine binding specificity of the monoclonal anti-KLB/FGFR1c antibodies, the antibodies were tested in a fluorescence-activated cell sorting (FACS) binding assay to cell lines expressing human FGFR1c, human KLB, and both human FGFR1c and human KLB. […]
# Lookup of reported binding ratio to unstained cells keyed by entry
Hi! Could you send only the number? It should be in fold, unit omitted.

binder	result.value
H2aM8092N (antibody, V domains shown, mouse IgG2 Fc (H2aM prefix); also called H2M8092N) VH: QVQLQESGPGLVKPSETLSLTCTVSGGSISSYYWSWIRQPPGKGLDWIGHIYYSGTTYYNPSLKSRVSISLDTSKNQFSLKLSSVTAADTAVYYCARHLRGYSSGREFDYWGQGTLVTVSS VL: DIQMTQSPSSLSASVGGRVSLTCRASQSIFSYLNWYQQKPGKAPKLLIYAASNLQSGVPSRFSGSGSGTDFTLTISSLQPEDFATYSCQQSYNIPYTFGQGTKLEIK	46

Lab note: H2aM8109N (antibody, V domains shown, mouse IgG2 Fc (H2aM prefix)) VH: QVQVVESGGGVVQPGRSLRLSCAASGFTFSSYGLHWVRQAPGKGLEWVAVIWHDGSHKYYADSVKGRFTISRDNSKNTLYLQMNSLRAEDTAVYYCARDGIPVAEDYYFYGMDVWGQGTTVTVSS VL: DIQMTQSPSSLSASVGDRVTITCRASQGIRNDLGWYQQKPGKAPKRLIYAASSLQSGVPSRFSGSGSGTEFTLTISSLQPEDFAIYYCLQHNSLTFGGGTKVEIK gave binding ratio to unstained cells of 58

Reported binding ratio to unstained cells for H2aM8093N (antibody, V domains shown, mouse IgG2 Fc (H2aM prefix)) VH: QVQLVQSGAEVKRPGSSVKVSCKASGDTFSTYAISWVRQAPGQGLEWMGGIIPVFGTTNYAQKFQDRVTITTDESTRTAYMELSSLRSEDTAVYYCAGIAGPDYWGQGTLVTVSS VL: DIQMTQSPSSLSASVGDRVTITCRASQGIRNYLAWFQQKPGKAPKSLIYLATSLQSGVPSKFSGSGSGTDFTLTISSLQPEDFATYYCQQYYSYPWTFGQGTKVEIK was 41
